- test_target: T1, HTRA3, P83110
- T1 sequence (P83110 354-453, limits assumed, looked up): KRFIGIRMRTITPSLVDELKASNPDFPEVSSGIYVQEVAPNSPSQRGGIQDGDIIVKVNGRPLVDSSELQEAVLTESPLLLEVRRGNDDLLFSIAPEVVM
- experiment_description: holdup assay
- Set-up: key: below the threshold = too weak to quantify, mostly under pKd 3.1 to 4
- test_context: plain residues with an end cap or a label only (N-terminal biotin on a linker: ado-ado)
property_measured: pKd

Study these solved cases before continuing.
# binder, result
records = [
    ("AKPSRISTVV [IQSEC2, Q5JU85]", 3.65),
    ("DDENIRTSDV [PLEKHA2, Q9HB19]", "below the threshold"),
    ("PAPSSGKDYV [CLDN1, O95832]", 3.95),
    ("GNSVLKSTQF [SLC22A12, Q96S37]", "below the threshold"),
    ("YYKRPVQEWV [MMP24, Q9Y5R2]", 5.7),
]

Qu. What does the record list as pKd for SNAGNTATKA [NOSTRIN, Q8IVI9] ?
Ans. below the threshold

Qu. Next up: QHKTQLQTLI [BPIFA2, Q96DR5]
Ans. below the threshold

Qu. Let us now turn to HSGYRLNDYV [CLDN14, O95500]
Ans. 4.55
